Hello, the source for this data is patent US20250122223A1, in case you need it.

Experiment: Pharmacokinetic (PK) parameters in mouse
Format: in vivo, BALB/c mouse
Conditions: blood; BALB/c mouse IV 1 mg/kg; read-out: Vss
Task for the reader: assign each of the following molecules its reported Vd.
Give a bare numeral; the unit L/kg is implied.

## Task Find the recorded Vd belonging to C[C@H]1CN[C@H](c2ccc(-n3c(Cl)cc4c(=O)n(CC5(O)CCN(C(=O)c6ccc(F)cc6)CC5)cnc43)cc2)CO1 [Example 21] and report it.
## Result 3.89

## Task Find the recorded Vd belonging to C[C@H]1CN[C@H](c2ccc(-n3c(Cl)cc4c(=O)n(CC5(O)CCN(C(=O)[C@]6(C)C[C@H]6C(F)(F)F)CC5)cnc43)cc2)CO1 (single isomer, unassigned) [Example 32] and report it.
## Result 5.49

---

Target: UniProtKB Q93009
Experiment: USP7 fluorescence polarisation (FP) assay with ubiquitin-Lys-TAMRA substrate
Assay type: biochemical
Settings: biochemical inhibition; read-out: USP7 IC50 activity (Table 3a, classes)
measuredMetric: IC50

## Task Find the recorded IC50 belonging to CC[C@H]1CN[C@H](c2ccc(-n3c(Cl)cc4c(=O)n(CC5(O)CCN(C(=O)C6(C)CC6)CC5)cnc43)cc2)CO1 and report it.
## Result 100 to 250 nM

## Task Find the recorded IC50 belonging to CC[C@@H]1CN[C@@H](c2ccc(-n3c(Cl)cc4c(=O)n(CC5(O)CCN(C(=O)C6(C)CC6)CC5)cnc43)cc2)CO1 and report it.
## Result < 100 nM

## Task Find the recorded IC50 belonging to Cc1cc(-n2c(Cl)cc3c(=O)n(CC4(O)CCN(C(=O)c5ccc(F)cc5)CC4)cnc32)ccc1[C@H]1CO[C@H](C)CN1 and report it.
## Result < 100 nM

## Task Find the recorded IC50 belonging to C[C@H]1CN[C@H](c2ccc(-n3c(Cl)cc4c(=O)n(CC5(O)CCN(C(=O)c6ccc(Cl)cc6F)CC5)cnc43)cc2)CO1 and report it.
## Result 100 to 250 nM

## Task Find the recorded IC50 belonging to C[C@H]1CN[C@H](c2ccc(-n3c(Cl)cc4c(=O)n(CC5(O)CCN(C(=O)C6(C)CCC6)CC5)cnc43)cc2)CO1 and report it.
## Result < 100 nM

## Task Find the recorded IC50 belonging to Cc1cc(-n2c(Cl)cc3c(=O)n(CC4(O)CCN(C(=O)c5cccc(Cl)c5)CC4)cnc32)ccc1[C@H]1CO[C@H](C)CN1 and report it.
## Result < 100 nM

## Task Find the recorded IC50 belonging to O=C(c1ccc(Cl)cc1)N1CCC(O)(Cn2cnc3c(cc(Cl)n3-c3ccc([C@@H]4CO[C@@H](C(F)(F)F)CN4)cc3)c2=O)CC1 (racemic) and report it.
## Result 250 to 2000 nM

## Task Find the recorded IC50 belonging to C[C@H]1CN[C@H](c2ccc(-n3c(Cl)cc4c(=O)n(CC5(O)CCN(C(=O)c6cccc(F)c6)CC5)cnc43)cc2)CO1 and report it.
## Result 250 to 2000 nM

## Task Find the recorded IC50 belonging to C[C@H]1CN[C@H](c2ccc(-n3c(Cl)cc4c(=O)n(CC5(O)CCN(C(=O)C6(C)CC6)CC5)cnc43)cc2)CO1 [Example 101] and report it.
## Result < 100 nM

## Task Find the recorded IC50 belonging to CC1(C)CN[C@H](c2ccc(-n3c(Cl)cc4c(=O)n(CC5(O)CCN(C(=O)C6(C)CC6)CC5)cnc43)cc2)CO1 (single isomer, unassigned) and report it.
## Result < 100 nM

## Task Find the recorded IC50 belonging to C[C@H]1CN[C@H](c2ccc(-n3c(Cl)cc4c(=O)n(CC5(O)CCN(C(=O)[C@@]6(C)C[C@@H]6C(F)(F)F)CC5)cnc43)cc2)CO1 (single isomer, unassigned) and report it.
## Result 100 to 250 nM

## Task Find the recorded IC50 belonging to C[C@H]1CN[C@H](c2ccc(-n3c(Cl)cc4c(=O)n(CC5(O)CCN(C(=O)c6ccccc6Cl)CC5)cnc43)cc2)CO1 and report it.
## Result 100 to 250 nM

## Task Find the recorded IC50 belonging to C[C@H]1CN[C@H](c2ccc(-n3c(Cl)cc4c(=O)n(CC5(O)CCN(C(=O)c6ccccc6)CC5)cnc43)cc2)CO1 and report it.
## Result 250 to 2000 nM

## Task Find the recorded IC50 belonging to CC1(C)CN[C@H](c2ccc(-n3c(Cl)cc4c(=O)n(CC5(O)CCN(C(=O)C6(C7CC7)CC6)CC5)cnc43)cc2)CO1 (single isomer, unassigned) [Example 41] and report it.
## Result < 100 nM

---

Biological target: USP7 (Homo sapiens (Human))
Test: USP7 fluorescence polarisation (FP) assay with ubiquitin-Lys-TAMRA substrate
Type: biochemical
Conditions: average of at least duplicate experiments; read-out: Biochemical: USP7 IC50
measuredMetric: pIC50
Kindly note that pIC50 refers to -log10 of the concentration in mol/L and answer with the value alone.

## Task Find the recorded pIC50 belonging to C[C@H]1OCCN[C@@H]1c1ccc(-n2c(Cl)cc3c(=O)n(CC4(O)CCN(C(=O)c5ccc(Cl)cc5)CC4)cnc32)cc1 and report it.
## Result 7.11

## Task Find the recorded pIC50 belonging to CC[C@H]1CN[C@H](c2ccc(-n3c(Cl)cc4c(=O)n(CC5(O)CCN(C(=O)[C@]6(C)C[C@H]6C(F)(F)F)CC5)cnc43)cc2)CO1 (single isomer, unassigned) and report it.
## Result 7.20

## Task Find the recorded pIC50 belonging to C[C@H]1CN[C@H](c2ccc(-n3c(Cl)cc4c(=O)n(CC5(O)CCN(C(=O)c6ccc(F)cc6)CC5)cnc43)cc2)CO1 and report it.
## Result 6.96

---

Molecular target: USP7 (Homo sapiens (Human), UniProt Q93009)
Sequence (Q93009 whole entry): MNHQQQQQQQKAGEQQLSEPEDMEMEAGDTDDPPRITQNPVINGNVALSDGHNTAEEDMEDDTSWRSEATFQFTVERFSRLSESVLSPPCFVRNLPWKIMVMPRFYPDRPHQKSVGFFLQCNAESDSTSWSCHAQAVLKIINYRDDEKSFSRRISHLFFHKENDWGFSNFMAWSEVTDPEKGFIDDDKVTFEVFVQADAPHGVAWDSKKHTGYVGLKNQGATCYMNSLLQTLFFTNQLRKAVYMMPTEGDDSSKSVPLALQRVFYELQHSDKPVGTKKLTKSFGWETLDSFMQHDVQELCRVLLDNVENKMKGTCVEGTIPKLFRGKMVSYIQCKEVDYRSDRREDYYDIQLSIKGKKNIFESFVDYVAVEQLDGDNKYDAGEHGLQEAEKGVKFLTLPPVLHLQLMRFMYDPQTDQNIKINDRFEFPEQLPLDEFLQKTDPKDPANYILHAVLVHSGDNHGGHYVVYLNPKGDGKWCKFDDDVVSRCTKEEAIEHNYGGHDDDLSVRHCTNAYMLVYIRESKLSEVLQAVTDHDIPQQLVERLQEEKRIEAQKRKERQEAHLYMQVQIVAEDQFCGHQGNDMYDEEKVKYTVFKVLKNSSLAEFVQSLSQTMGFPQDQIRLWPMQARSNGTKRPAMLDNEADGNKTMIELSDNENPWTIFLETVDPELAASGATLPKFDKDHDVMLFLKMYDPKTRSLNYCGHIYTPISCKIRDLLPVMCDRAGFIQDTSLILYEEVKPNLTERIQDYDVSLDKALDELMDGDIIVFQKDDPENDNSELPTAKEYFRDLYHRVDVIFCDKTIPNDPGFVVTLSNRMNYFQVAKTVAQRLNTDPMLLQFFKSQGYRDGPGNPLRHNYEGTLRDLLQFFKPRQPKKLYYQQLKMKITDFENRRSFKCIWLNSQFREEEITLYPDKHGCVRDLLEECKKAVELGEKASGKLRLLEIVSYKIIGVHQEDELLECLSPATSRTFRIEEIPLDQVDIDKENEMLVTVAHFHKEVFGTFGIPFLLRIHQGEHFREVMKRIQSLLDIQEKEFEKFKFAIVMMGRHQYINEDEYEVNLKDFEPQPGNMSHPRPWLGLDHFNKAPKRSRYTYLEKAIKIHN
Test: USP7 fluorescence polarisation (FP) assay with ubiquitin-Lys-TAMRA substrate
Assay type: biochemical
Conditions: biochemical inhibition; unit not given in Table 3b (Table 1 and key of Table 3a use μM); read-out: USP7 IC50 activity (Table 3b)
Task for the reader: assign each of the following compounds its reported IC50.
Give a bare numeral; the unit µM is implied.

## Task Entry C[C@@H]1CN[C@H](c2ccc(-n3c(Cl)cc4c(=O)n(CC5(O)CCN(C(=O)c6ccc(Cl)cc6)CC5)cnc43)cc2)CO1 (single isomer, unassigned) , system USP7 (Homo sapiens (Human), UniProt Q93009): what IC50 was measured?
## Result 0.586

## Task Entry Cc1cc(Cl)ccc1C(=O)N1CCC(O)(Cn2cnc3c(cc(Cl)n3-c3ccc([C@H]4CO[C@H](C)CN4)c(C)c3)c2=O)CC1 , system USP7 (Homo sapiens (Human), UniProt Q93009): what IC50 was measured?
## Result 0.204

## Task Entry C[C@H]1CN[C@H](c2ccc(-n3c(Cl)cc4c(=O)n(CC5(O)CCN(C(=O)[C@]6(C)C[C@H]6C(F)F)CC5)cnc43)cc2)CO1 , system USP7 (Homo sapiens (Human), UniProt Q93009): what IC50 was measured?
## Result 0.018

## Task Entry CC1(C)CN[C@@H](c2ccc(-n3c(Cl)cc4c(=O)n(CC5(O)CCN(C(=O)c6ccc(F)cc6)CC5)cnc43)cc2)CO1 (single isomer, unassigned) , system USP7 (Homo sapiens (Human), UniProt Q93009): what IC50 was measured?
## Result 0.218

## Task Entry C[C@@H]1CN[C@@H](c2ccc(-n3c(Cl)cc4c(=O)n(CC5(O)CCN(C(=O)c6ccccc6)CC5)cnc43)cc2)CO1 , system USP7 (Homo sapiens (Human), UniProt Q93009): what IC50 was measured?
## Result 0.25

## Task Entry C[C@H]1CN[C@H](c2ccc(-n3c(Cl)cc4c(=O)n(CC5(O)CCN(C(=O)/C=C/c6ccccc6)CC5)cnc43)cc2)CO1 , system USP7 (Homo sapiens (Human), UniProt Q93009): what IC50 was measured?
## Result 0.221

## Task Entry O=C(c1ccc(Cl)cc1)N1CCC(O)(Cn2cnc3c(cc(Cl)n3-c3ccc([C@@H]4CO[C@@H](C(F)(F)F)CN4)cc3)c2=O)CC1 (racemic) , system USP7 (Homo sapiens (Human), UniProt Q93009): what IC50 was measured?
## Result 0.42

## Task Entry CC[C@H]1CN[C@H](c2ccc(-n3c(Cl)cc4c(=O)n(CC5(O)CCN(C(=O)[C@@]6(C)C[C@@H]6C)CC5)cnc43)cc2)CO1 , system USP7 (Homo sapiens (Human), UniProt Q93009): what IC50 was measured?
## Result 0.132

## Task Entry C[C@H]1COC[C@@H](c2ccc(-n3c(Cl)cc4c(=O)n(CC5(O)CCN(C(=O)C6(C)CC6)CC5)cnc43)cc2)N1 (racemic) , system USP7 (Homo sapiens (Human), UniProt Q93009): what IC50 was measured?
## Result 0.046

## Task Entry C[C@H]1CN[C@H](c2ccc(-n3c(Cl)cc4c(=O)n(CC5(O)CCN(C(=O)C(C6CC6)C6CC6)CC5)cnc43)cc2)CO1 , system USP7 (Homo sapiens (Human), UniProt Q93009): what IC50 was measured?
## Result 0.263

## Task Entry Cc1cc(-n2c(Cl)cc3c(=O)n(CC4(O)CCN(C(=O)c5cccc(Cl)c5)CC4)cnc32)ccc1[C@H]1CO[C@H](C)CN1 , system USP7 (Homo sapiens (Human), UniProt Q93009): what IC50 was measured?
## Result 0.258
